experimental-target: Bcl-2 protein (Recombinant Human Bcl-2 Protein) (Homo sapiens, UniProt P10415)
Construct: purchased Novus NBP2-34889
Sequence (P10415 whole entry): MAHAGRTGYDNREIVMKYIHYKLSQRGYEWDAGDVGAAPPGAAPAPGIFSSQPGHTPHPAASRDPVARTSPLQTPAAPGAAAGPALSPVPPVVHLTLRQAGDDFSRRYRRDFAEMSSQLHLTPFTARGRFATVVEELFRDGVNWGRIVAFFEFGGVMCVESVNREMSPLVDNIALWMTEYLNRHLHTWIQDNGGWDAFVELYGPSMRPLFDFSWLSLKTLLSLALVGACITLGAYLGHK
assay-remarks: Binding evaluation of mixture library compounds to Bcl-2 using AS-MS (affinity selection mass spectrometry)
condition-info: n = 2
readout-label: ASMS ratio (%)

>  <molecule>
CCOc1cncc(-c2cc(CN3CCN(c4ccc(C(=O)NS(=O)(=O)c5ccc(NCCSc6ccccc6)c(C(F)(F)F)c5)nn4)CC3)cc(OCC)c2)c1

>  <units-label>
%

>  <ASMS ratio (%)>
0.0

$$$$
>  <molecule>
CCOc1cccc(-c2ccccc2CN2CCN(c3ccc(C(=O)NS(=O)(=O)c4ccc(NCCSc5ccccc5)c(C(F)(F)F)c4)nn3)CC2)c1

>  <units-label>
%

>  <ASMS ratio (%)>
−9.0

$$$$
>  <molecule>
CCOc1cncc(-c2ccc(CN3CCN(c4ccc(C(=O)NS(=O)(=O)CCC(F)(F)F)nn4)CC3)cc2C)c1

>  <units-label>
%

>  <ASMS ratio (%)>
0.0

$$$$
>  <molecule>
CCOc1cncc(C#Cc2cncc(C(=O)N3CCN(c4ccc(C(=O)NS(=O)(=O)C(C)(C)C)cc4)CC3)c2)c1

>  <units-label>
%

>  <ASMS ratio (%)>
−1.0

$$$$
>  <molecule>
CCOc1cccc(-c2ccc(CN3CCN(c4ccc(C(=O)NS(=O)(=O)c5ccc(NCCSc6ccccc6)c(C(F)(F)F)c5)cc4)CC3)cc2C)c1

>  <units-label>
%

>  <ASMS ratio (%)>
−7.8

$$$$

(P) CCOc1cncc(-c2ccc(C(=O)N3CCN(c4ccc(C(=O)NS(=O)(=O)CCC(F)(F)F)nn4)CC3)c3ccccc23)c1
(Q) CCOc1cccc(-c2cc(CN3CCN(c4ccc(C(=O)NS(=O)(=O)c5ccc(NCCSc6ccccc6)c(C(F)(F)F)c5)cc4)CC3)cc(OCC)c2)c1
Query :: Hi, I'm comparing two records. Which one has the lower ASMS ratio (%), P or Q ? Record your answer as the label of the chosen record.
Result :: P
(P: 0.0%, Q: 6.3%)

(1) CCOc1cncc(-c2cc(OC)c(CN3CCN(c4ccc(C(=O)NS(C)(=O)=O)nn4)CC3)c(OC)c2)c1
(2) CCOc1cncc(-c2cc(CN3CCN(c4ccc(C(=O)NS(C)(=O)=O)nn4)CC3)cc(OC(C)C)c2)c1
Query :: For the two items 1 and 2 , which reports the higher ASMS ratio (%) value? Record your answer as the label of the chosen record.
Result :: 1

====

experimental-target: Bcl-2 protein (Recombinant Human Bcl-2 Protein) (Homo sapiens, UniProt P10415)
Construct: purchased Novus NBP2-34889
assay-remarks: Binding evaluation of mixture library compounds to Bcl-2 using AS-MS (affinity selection mass spectrometry)
condition-info: AS-MS on the mixture of 1200 library compounds; ASMS Ratio(%)=(A−C)/B×100; replicate n = 1
readout-label: ASMS ratio (%) n = 1

>  <compound>
CCOc1cncc(-c2ccc(C(=O)N3CCN(c4ccc(C(=O)N(CC)CC)nn4)CC3)cc2C)c1

>  <experimental-target>
Bcl-2 protein (Recombinant Human Bcl-2 Protein) (Homo sapiens, UniProt P10415)

>  <units-label>
%

>  <ASMS ratio (%) n = 1>
−2.2

$$$$

(a) CCOc1cccc(-c2ccc(C(C)N3CCN(c4ccc(C(=O)N(C)CC56CC7CC(CC(C7)C5)C6)cc4)CC3)cc2)c1 (stereo not drawn)
(b) CCOc1cccc(-c2cc(CN3CCN(c4ccc(C(=O)N(C)CC56CC7CC(CC(C7)C5)C6)nn4)CC3)cc(OC(F)(F)F)c2)c1
Query :: For the two items a and b , which reports the higher ASMS ratio (%) n = 1 value? Record your answer as the label of the chosen record.
Result :: a
